Target: T1, TIM-3 protein on human peripheral blood mononuclear lymphocytes (PBMC) (human, UniProt Q8TDQ0 22-301)
T1 sequence: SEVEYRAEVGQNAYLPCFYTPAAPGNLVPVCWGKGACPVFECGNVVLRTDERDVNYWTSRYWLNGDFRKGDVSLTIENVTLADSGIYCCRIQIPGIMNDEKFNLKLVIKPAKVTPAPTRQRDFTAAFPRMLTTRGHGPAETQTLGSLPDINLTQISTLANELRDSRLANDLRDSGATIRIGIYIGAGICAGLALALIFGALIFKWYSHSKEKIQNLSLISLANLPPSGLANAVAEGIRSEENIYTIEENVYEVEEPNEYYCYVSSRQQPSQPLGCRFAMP
Test: cell-based or functional assay
Record form. Attribute: IFN-γ production (donor X); antibody 0.1 µg/ml, N = 1. Fill in for each entry.
One number for each entry, in pg/mL.

Some entries whose results are on file:
| BINDER | UNIT_OF_MEASURE | OBSERVED_RESULT |
| --- | --- | --- |
| 57F4E5 fully human TIM-3 antibody (human IgG4, kappa) (antibody, V domains shown) VH: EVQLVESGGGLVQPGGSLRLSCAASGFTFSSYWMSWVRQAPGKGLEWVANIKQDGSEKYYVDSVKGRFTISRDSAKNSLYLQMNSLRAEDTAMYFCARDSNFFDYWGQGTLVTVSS VL: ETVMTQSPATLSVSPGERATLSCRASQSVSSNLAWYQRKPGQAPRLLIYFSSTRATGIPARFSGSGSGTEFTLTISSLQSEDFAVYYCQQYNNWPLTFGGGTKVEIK | pg/mL | 2800 |
| 34B6D8 fully human TIM-3 antibody (human IgG4, kappa) (antibody, V domains shown) VH: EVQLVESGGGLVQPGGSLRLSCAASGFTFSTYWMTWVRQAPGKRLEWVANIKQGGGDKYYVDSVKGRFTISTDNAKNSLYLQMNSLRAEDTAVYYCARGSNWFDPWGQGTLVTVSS VL: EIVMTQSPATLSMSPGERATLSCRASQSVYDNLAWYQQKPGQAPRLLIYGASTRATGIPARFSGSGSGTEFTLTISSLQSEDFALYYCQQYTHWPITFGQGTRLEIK | pg/mL | 2770 |

Then there is this binder:
Q: Any idea what IFN-γ production (donor X); antibody 0.1 µg/ml, N = 1 was measured for 7A4F10 fully human TIM-3 antibody (human IgG4, kappa) (antibody, V domains shown) VH: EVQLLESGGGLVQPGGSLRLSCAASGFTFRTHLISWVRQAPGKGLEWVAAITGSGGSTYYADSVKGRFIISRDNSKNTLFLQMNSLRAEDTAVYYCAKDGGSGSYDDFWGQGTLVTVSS VL: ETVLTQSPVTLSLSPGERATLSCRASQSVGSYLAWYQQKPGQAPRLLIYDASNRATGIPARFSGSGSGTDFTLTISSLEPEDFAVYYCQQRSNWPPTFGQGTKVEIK ?
A: 2930
